IC50 for assorted compounds
ASSAYED SYSTEM: full-length beta-Catenin (Uniprot ID P35222) (Homo sapiens)
Construct: 10 nM full-length beta-Catenin (Uniprot ID P35222)
PROTOCOL DETAILS: Fluorescence polarization IC50 (beta-catenin / 5FAM-TCF4 10-53 competition)
Format: binding
COND: fluorescence polarization; read-out: beta-Catenin FP IC50
# value in nM; strip the unit string

INSERT INTO assay_data (compound, quantitative_readout) VALUES
  ('CC(=O)N1CCC[C@]12CC=CCCCCC1(CCCCC=CCCCOC(=O)N3CC[C@@](C(=O)N[C@@H](Cc4ccccc4C(F)(F)F)C(=O)N[C@@H](Cc4csc5ccccc45)C(=O)N[C@@H](C)C(N)=O)(C3)NC(=O)[C@H](CC(C)C)NC(=O)[C@H](Cc3ccccc3)NC(=O)[C@H](C)NC(=O)[C@H](CCC(N)=O)NC(=O)[C@H](Cc3cccc(C(=O)O)c3)NC(=O)[C@H](CC(=O)O)NC1=O)NC(=O)[C@H](CC(C)(C)C)NC(=O)[C@H](CC(=O)O)NC2=O (stereo partly drawn) [I-2516]', 209),
  ('CC(=O)N1CCC[C@]12CCCCCCC1(CCCCCCCCOC(=O)N3CC[C@@](C(=O)N[C@@H](Cc4ccsc4)C(=O)N[C@@H](Cc4csc5ccccc45)C(=O)N[C@@H](CC(C)C)C(N)=O)(C3)NC(=O)[C@H]([C@@H](C)O)NC(=O)[C@H](Cc3ccccc3)NC(=O)[C@H](C)NC(=O)[C@H](CCCCNC(C)C)NC(=O)[C@H](CN(CC(=O)O)CC(F)(F)F)NC(=O)[C@H](CC(=O)O)NC1=O)NC(=O)[C@H](CC(C)(C)C)NC(=O)[C@H](CC(=O)O)NC2=O (stereo partly drawn) [I-1766]', 267);

Annotate the compound CC[C@H](C)[C@@H]1NC(=O)[C@H](CC(=O)O)NC(=O)[C@]2(CC=CCCCC3(CCCC=CCCCCCC[C@@](C)(C(=O)N[C@@H](Cc4ccccc4)C(=O)N[C@@H](Cc4csc5ccccc45)C(=O)N[C@@H](CCC(N)=O)C(N)=O)NC(=O)[C@H](CCC(N)=O)NC(=O)[C@H](Cc4ccccc4)NC(=O)[C@H](C)NC(=O)[C@H](CO)NC(=O)[C@H](CCC(=O)O)NC(=O)[C@H](CC(=O)O)NC3=O)NC1=O)CCCN2C(C)=O (stereo partly drawn) [I-651] with its measured IC50.
186

====

pIC50 for assorted molecules
ASSAYED SYSTEM: full-length beta-Catenin (Uniprot ID P35222) (Homo sapiens, UniProt P35222)
Construct: 10 nM full-length beta-Catenin (Uniprot ID P35222)
Sequence (P35222 1-781): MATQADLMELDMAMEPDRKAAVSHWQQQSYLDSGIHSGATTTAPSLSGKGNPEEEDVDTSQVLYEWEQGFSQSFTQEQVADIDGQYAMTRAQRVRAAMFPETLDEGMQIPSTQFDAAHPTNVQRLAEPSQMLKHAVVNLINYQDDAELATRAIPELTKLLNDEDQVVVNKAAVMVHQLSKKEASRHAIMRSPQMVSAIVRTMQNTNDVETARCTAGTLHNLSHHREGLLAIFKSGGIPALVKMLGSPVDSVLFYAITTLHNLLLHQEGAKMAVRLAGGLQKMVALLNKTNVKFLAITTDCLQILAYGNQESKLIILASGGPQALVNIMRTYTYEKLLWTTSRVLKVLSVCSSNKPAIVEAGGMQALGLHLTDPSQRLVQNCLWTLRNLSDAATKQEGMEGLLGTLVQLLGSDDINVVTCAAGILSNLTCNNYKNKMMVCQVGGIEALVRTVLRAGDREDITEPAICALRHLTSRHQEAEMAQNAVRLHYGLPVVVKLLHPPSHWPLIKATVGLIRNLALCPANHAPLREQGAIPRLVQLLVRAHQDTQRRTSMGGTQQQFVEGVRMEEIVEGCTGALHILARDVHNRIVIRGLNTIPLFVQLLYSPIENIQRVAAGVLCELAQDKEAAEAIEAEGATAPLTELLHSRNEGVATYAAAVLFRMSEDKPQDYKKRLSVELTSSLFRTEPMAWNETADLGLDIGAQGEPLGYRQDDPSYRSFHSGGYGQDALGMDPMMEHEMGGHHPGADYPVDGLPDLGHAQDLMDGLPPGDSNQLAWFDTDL
PROTOCOL DETAILS: Fluorescence polarization IC50 (beta-catenin / 5FAM-TCF4 10-53 competition)
Assay type: binding
COND: read-out: FP EC50
Quick note: pIC50 means taking -log10 of the concentration in moles per liter.

INSERT INTO results (molecule, value_type, quantitative_readout) VALUES
  ('CC[C@H](C)[C@@H]1NC(=O)[C@H](CC(=O)O)NC(=O)[C@]2(CC=CCCCC3(CCCC=CCCCCCC[C@@](C)(C(=O)N[C@@H](Cc4ccsc4)C(=O)N[C@@H](Cc4csc5ccccc45)C(=O)N[C@@H](CCC(N)=O)C(N)=O)NC(=O)[C@H](CC(N)=O)NC(=O)[C@H](Cc4ccccc4)NC(=O)[C@H](C)NC(=O)[C@H](C)NC(=O)[C@H](CC(=O)O)NC(=O)[C@H](CC(=O)O)NC3=O)NC1=O)CCCN2C(C)=O (stereo partly drawn) [I-551]', 'pIC50', 7.35),
  ('CCCC[C@@H]1NC(=O)[C@H](C)NC(=O)[C@H](CCC(=O)O)NC(=O)[C@H](CC(=O)O)NC(=O)C2(CCCC=CCCCCCC[C@@](C)(C(=O)N[C@@H](Cc3ccccc3)C(=O)N[C@@H](Cc3csc4ccccc34)C(=O)N[C@@H](CCC(N)=O)C(N)=O)NC(=O)[C@H](CCC(N)=O)NC(=O)[C@H](Cc3ccccc3)NC1=O)CCCC=CC[C@]1(CCCN1C(C)=O)C(=O)N[C@@H](CC(=O)O)C(=O)N[C@@H]([C@@H](C)CC)C(=O)N2 (stereo partly drawn) [I-667]', 'pIC50', 6.23);

Annotate the molecule CC[C@H](C)[C@@H]1NC(=O)[C@H](CC(=O)O)NC(=O)[C@]2(CC=CCCCC3(CCCC=CCCCCCC[C@@](C)(C(=O)N[C@@H](Cc4ccccc4)C(=O)N[C@@H](Cc4csc5ccccc45)C(N)=O)NC(=O)[C@H](CC(N)=O)NC(=O)[C@H](Cc4ccccc4)NC(=O)[C@H](C)NC(=O)[C@H](C)NC(=O)[C@H](CCC(=O)O)NC(=O)[C@H](CC(=O)O)NC3=O)NC1=O)CCCN2C(C)=O (stereo partly drawn) [I-715] with its measured pIC50.
7.22

====

chromatographic logD for assorted molecules
PROTOCOL DETAILS: CHI Log D procedure
Format: physicochemical
COND: pH 7.4, CHI Log D
Respond numerically, and do not add a unit to the figure.

Illustrative cases are given below, each with its answer.
INSERT INTO results (molecule, quantitative_readout) VALUES
  ('CC(=O)N1CCC[C@]12CC=CCCCC1(CCCC=CCCCOC(=O)N3CC[C@@](C(=O)N[C@@H](Cc4ccsc4)C(=O)N[C@@H](Cc4csc5ccccc45)C(=O)N[C@H](CC(N)=O)C(N)=O)(C3)NC(=O)[C@H](CC(N)=O)NC(=O)[C@H](Cc3ccccc3)NC(=O)[C@H](C)NC(=O)[C@H](C)NC(=O)[C@H](CC(=O)O)NC(=O)[C@H](CC(=O)O)NC1=O)NC(=O)[C@H](CC(C)(C)C)NC(=O)[C@H](CC(=O)O)NC2=O (stereo partly drawn)', 2.12),
  ('CC(=O)N1CCC[C@]12CC=CCCCC1(CCCC=CCCCCCC[C@@](C)(C(=O)N[C@@H](Cc3ccccc3)C(=O)N[C@@H](Cc3csc4ccccc34)C(=O)N[C@@H](CCC(N)=O)C(N)=O)NC(=O)[C@H](CC(N)=O)NC(=O)[C@H](Cc3ccc(C)cc3)NC(=O)[C@H](C)NC(=O)[C@H](C)NC(=O)[C@H](CCC(=O)O)NC(=O)[C@H](CC(=O)O)NC1=O)NC(=O)[C@H](C)NC(=O)[C@H](CC(=O)O)NC2=O (stereo partly drawn)', 2.06);

Next molecule, please.
Annotate the molecule CC(=O)N1CCC[C@]12CC=CCCCC1(CCCC=CCCCOC(=O)N3CC[C@@](C(=O)N[C@@H](Cc4ccccc4Cl)C(=O)N[C@@H](Cc4csc5ccccc45)C(=O)N[C@@H](CCC(N)=O)C(N)=O)(C3)NC(=O)[C@H](CC3CCCCC3)NC(=O)[C@H](Cc3ccccc3)NC(=O)[C@H](C)NC(=O)[C@H](C)NC(=O)[C@H](CC(=O)O)NC(=O)[C@H](CC(=O)O)NC1=O)NC(=O)[C@H](CC1CCCCC1)NC(=O)[C@H](CC(=O)O)NC2=O (stereo partly drawn) with its measured chromatographic logD.
2.64

====

IC50 for assorted molecules
ASSAYED SYSTEM: beta-catenin/TCF4 engagement (Homo sapiens, UniProt P35222)
Construct: expressed in transfected cells; host or cells: HEK293
Sequence (P35222 1-781): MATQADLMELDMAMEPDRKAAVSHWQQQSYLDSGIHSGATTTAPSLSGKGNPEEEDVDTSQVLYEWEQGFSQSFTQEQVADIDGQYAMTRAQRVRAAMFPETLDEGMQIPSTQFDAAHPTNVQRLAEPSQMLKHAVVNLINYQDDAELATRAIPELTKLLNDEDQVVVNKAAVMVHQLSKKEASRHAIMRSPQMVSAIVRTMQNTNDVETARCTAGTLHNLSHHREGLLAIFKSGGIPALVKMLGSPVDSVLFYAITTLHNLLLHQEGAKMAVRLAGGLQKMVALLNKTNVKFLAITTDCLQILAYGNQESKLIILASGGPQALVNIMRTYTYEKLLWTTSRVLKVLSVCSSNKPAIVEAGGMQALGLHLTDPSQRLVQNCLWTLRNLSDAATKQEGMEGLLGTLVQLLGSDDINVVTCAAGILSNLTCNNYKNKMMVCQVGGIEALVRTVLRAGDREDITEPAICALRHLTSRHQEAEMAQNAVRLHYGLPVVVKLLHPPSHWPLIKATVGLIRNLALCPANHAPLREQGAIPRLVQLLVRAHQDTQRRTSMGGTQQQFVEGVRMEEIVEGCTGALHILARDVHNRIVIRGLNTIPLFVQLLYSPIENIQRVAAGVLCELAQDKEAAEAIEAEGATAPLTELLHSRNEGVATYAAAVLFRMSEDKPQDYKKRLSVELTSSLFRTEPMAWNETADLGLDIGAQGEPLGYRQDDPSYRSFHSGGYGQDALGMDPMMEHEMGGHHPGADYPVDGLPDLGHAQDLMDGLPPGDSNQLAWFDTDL
PROTOCOL DETAILS: Nano-BRET target engagement assay (B-cat-Halo & TCF4-Luc in HEK293 cells)
Format: cell-based
COND: read-out: NanoBRET Abs IC50
# value in µM; strip the unit string

INSERT INTO results (molecule, quantitative_readout) VALUES
  ('CC(=O)N1CCC[C@]12CC=CCCCC1(CCCC=CCCCOC(=O)N3CC[C@@](C(=O)N[C@@H](Cc4ccsc4)C(=O)N[C@@H](Cc4csc5ccccc45)C(=O)N[C@@H](Cc4c[nH]cn4)C(N)=O)(C3)NC(=O)[C@H](CC(N)=O)NC(=O)[C@H](Cc3ccccc3)NC(=O)[C@H](C)NC(=O)[C@H](C)NC(=O)[C@H](CN(CC(=O)O)CC(F)(F)F)NC(=O)[C@H](CC(=O)O)NC1=O)NC(=O)[C@H](CC(C)(C)C)NC(=O)[C@H](CC(=O)O)NC2=O (some centres unmarked) [I-769]', 13);

Next molecule, please.
Write IC50 of CC(=O)N1CCC[C@]12CC=CCCCC1(CCCC=CCCCOC(=O)N3CC[C@@](C(=O)N[C@@H](Cc4ccsc4)C(=O)N[C@@H](Cc4csc5ccccc45)C(=O)N[C@@H](CCC(N)=O)C(N)=O)(C3)NC(=O)[C@H](CCC(=O)N3CCC(N4CCCCC4)CC3)NC(=O)[C@H](Cc3ccccc3)NC(=O)[C@H](C)NC(=O)[C@H](C)NC(=O)[C@H](CN(CC(=O)O)CC(F)(F)F)NC(=O)[C@H](CC(=O)O)NC1=O)NC(=O)[C@H](CC(C)(C)C)NC(=O)[C@H](CC(=O)O)NC2=O (some centres unmarked) ; system used: beta-catenin/TCF4 engagement (Homo sapiens, UniProt P35222)
15.4
